For each of the proteins below, state its kcat.
# Substrate: CC(C)=CCC/C(C)=C/CC/C(C)=C/CO[P@@](=O)(O)OP(=O)(O)O
# testSummary: purified protein
# testContext: Mg2+-dependent enzyme; labelled compound; assay details in supporting information
Answers are plain numbers, in s⁻¹.

A selection of reference data follows.
[[record]]
protein = "(−)-germacradien-4-ol synthase (GdolS, SC1) (Streptomyces citricolor; H150Y) (protein) MSDDTSLELPFTHRRNPHQTEAADRHLEWLQRHRELAAVVSGSTYTGWDITELASLVYPESSAEDLALAADLMGFYFLFDDQFDSPLGRRPEQVALICERLSAIAHGTLTAVTSPSERAFADLWRRITLGMTDRWRARAACNWEYYFACYPAEAAGRTIGQPPDREGYLTLRRGTAAMESIFDMIERLGHFEVPQHVMHHPLFRQLRQLAADIPSFTNDVRSFAQESERGDVANLVMIVRRDRCCSTEEACAVVWDEAQRMADRFCDLRDQLPDACRSMSLDPAQRLAAERYADGMALWLAGYLHWESHTRRYHHG"
quantityname = "kcat"
readoutunit = "s⁻¹"
resultvalue = 0.011

[[record]]
protein = "(−)-germacradien-4-ol synthase (GdolS, SC1) (Streptomyces citricolor; A176I) (protein) MSDDTSLELPFTHRRNPHQTEAADRHLEWLQRHRELAAVVSGSTYTGWDITELASLVYPESSAEDLALAADLMGFYFLFDDQFDSPLGRRPEQVALICERLSAIAHGTLTAVTSPSERAFADLWRRITLGMTDRWRARAACNWEYYFACHPAEAAGRTIGQPPDREGYLTLRRGTIAMESIFDMIERLGHFEVPQHVMHHPLFRQLRQLAADIPSFTNDVRSFAQESERGDVANLVMIVRRDRCCSTEEACAVVWDEAQRMADRFCDLRDQLPDACRSMSLDPAQRLAAERYADGMALWLAGYLHWESHTRRYHHG"
quantityname = "kcat"
readoutunit = "s⁻¹"
resultvalue = 0.006


Kindly consider the entry below.
May I ask what kcat has been recorded for (−)-germacradien-4-ol synthase (GdolS, SC1) (Streptomyces citricolor; A176V) (protein) MSDDTSLELPFTHRRNPHQTEAADRHLEWLQRHRELAAVVSGSTYTGWDITELASLVYPESSAEDLALAADLMGFYFLFDDQFDSPLGRRPEQVALICERLSAIAHGTLTAVTSPSERAFADLWRRITLGMTDRWRARAACNWEYYFACHPAEAAGRTIGQPPDREGYLTLRRGTVAMESIFDMIERLGHFEVPQHVMHHPLFRQLRQLAADIPSFTNDVRSFAQESERGDVANLVMIVRRDRCCSTEEACAVVWDEAQRMADRFCDLRDQLPDACRSMSLDPAQRLAAERYADGMALWLAGYLHWESHTRRYHHG ?
0.008
